These data points were gathered from the supplement of paper PMC4862054.

Give normalised response for every item shown.
# Test system: MDA-MB-231
# method: normalised response (% of control), CellTiter-Glo; higher = more viable cells (100 = DMSO, 0 = benzethonium chloride kill control)
# measurementParameters: incubation time: 72 h
Only the number, expressed in %, is required.

Challenge: Return normalised response (reported value) for this molecule: CS(=O)(=O)N1CCN(Cc2cc3nc(-c4cccc5[nH]ncc45)nc(N4CCOCC4)c3s2)CC1 [Pictilisib] (100 nM)
Response given: 86.2

Challenge: Return normalised response (reported value) for this molecule: CC(=O)OC[C@H]1O[C@@H]([S-])[C@H](OC(C)=O)[C@@H](OC(C)=O)[C@@H]1OC(C)=O.CCP(CC)CC.[Au+] [Auranofin] (25 nM)
Response given: 103

Challenge: Return normalised response (reported value) for this molecule: CCCCC/C=C/C=C1/C(=O)C=C[C@@H]1C/C=C\CCCC(=O)O [15D-PGJ2] (8 nM)
Response given: 107

Challenge: Return normalised response (reported value) for this molecule: O=C(NC[C@H](O)CO)c1ccncc1Nc1ccc(I)cc1F [Pimasertib] (100 nM)
Response given: 83.5

Challenge: Return normalised response (reported value) for this molecule: Cc1c(CN2CCN(C(=O)[C@H](C)O)CC2)sc2c(N3CCOCC3)nc(-c3cnc(N)nc3)nc12 [GDC-0980] (100 nM)
Response given: 97.1

Challenge: Return normalised response (reported value) for this molecule: O=S(=O)(c1cccc2cnccc12)N1CCCNCC1 [Fasudil] (500 nM)
Response given: 103

Challenge: Return normalised response (reported value) for this molecule: COc1nc(N)nc2c1ncn2[C@@H]1O[C@H](CO)[C@@H](O)[C@@H]1O [Nelarabine] (100 nM)
Response given: 94.2

Challenge: Return normalised response (reported value) for this molecule: Cc1ccc(Nc2nccc(N(C)c3ccc4c(C)n(C)nc4c3)n2)cc1S(N)(=O)=O [Pazopanib] (100 nM)
Response given: 98.7

* * *

# System: DU-4475
# method: drug sensitivity score (DSS), CellTiter-Blue viability (DSS (AUC-based score)); higher = stronger viability inhibition; extreme values may be limits of the assay
# measurementParameters: incubation time: 72 h
quantityKind: drug sensitivity score
Write the value as a bare number.

Challenge: Return drug sensitivity score (reported value) for this compound: O=C1c2c(O)ccc(O)c2C(=O)c2c(NCCNCCO)ccc(NCCNCCO)c21
Response given: 22.7

Challenge: Return drug sensitivity score (reported value) for this compound: COc1ccc(-c2cc3c(C)nc(N)nc3n([C@H]3CC[C@H](OCCO)CC3)c2=O)cn1
Response given: 13.7

Challenge: Return drug sensitivity score (reported value) for this compound: Nc1ccccc1NC(=O)c1ccc(CNc2nccc(-c3cccnc3)n2)cc1
Response given: 12.9

Challenge: Return drug sensitivity score (reported value) for this compound: COc1nc(N)nc2c1ncn2[C@@H]1O[C@H](CO)[C@@H](O)[C@@H]1O
Response given: 0

Challenge: Return drug sensitivity score (reported value) for this compound: C[C@]12O[C@H](C[C@]1(O)CO)n1c3ccccc3c3c4c(c5c6ccccc6n2c5c31)CNC4=O
Response given: 8.26

Challenge: Return drug sensitivity score (reported value) for this compound: Cc1ccc(Nc2nccc(N(C)c3ccc4c(C)n(C)nc4c3)n2)cc1S(N)(=O)=O
Response given: 0

* * *

# Tested on: CAL-148
# method: normalised viability (% of control), CellTiter-Blue; higher = more viable cells (about 100 = DMSO control)
# measurementParameters: incubation time: 72 h
quantityKind: normalised viability
Be sure to follow the number with its unit.

Challenge: Return normalised viability (reported value) for this molecule: COc1ccc(-c2cc3c(C)nc(N)nc3n([C@H]3CC[C@H](OCCO)CC3)c2=O)cn1 (300 nM)
Response given: 42.2%

Challenge: Return normalised viability (reported value) for this molecule: O=C(Nc1c[nH]nc1-c1nc2ccc(CN3CCOCC3)cc2[nH]1)NC1CC1 [AT9283] (300 nM)
Response given: 61.9%

Challenge: Return normalised viability (reported value) for this molecule: COc1cc(CCc2cc(NC(=O)c3ccc(N4CC(C)NC(C)C4)cc3)n[nH]2)cc(OC)c1 (centres undefined) [AZD4547] (30 nM)
Response given: 105%

Challenge: Return normalised viability (reported value) for this molecule: C[C@]12O[C@H](C[C@]1(O)CO)n1c3ccccc3c3c4c(c5c6ccccc6n2c5c31)CNC4=O [Lestaurtinib] (30 nM)
Response given: 107%
